target: C-X-C chemokine receptor type 6 (Homo sapiens); test: CXCR6 beta-arrestin signal inhibition by hits – cell-based, single concentration, luminescence, confirmation (AID 602409); details: CHO-K1 CXCR6 PathHunter beta-arrestin, at 20 µM;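 also: receptor stimulated with 10 nM CXCL16 agonist; beta-galactosidase fragment complementation upon beta-arrestin recruitment to receptor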
The list shows a part of the results. Active and inactive are the calls of the source.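 The calls were made as follows: active = mean inhibition over four retests above 40%; inactive = the rest.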
Write down the outcome that applies. Available outcomes: true for active, false for inactive

Solved entries (count: 4):
Each molecule tested received a call. Report the one for `COCCCNC(=S)NC(=O)c1ccc([N+](=O)[O-])cc1` .
false

Query: recorded result category for CCOCCCN1C(=O)C2C(C(=O)Nc3ccc(OCC)cc3)C3C=CC2(O3)C1C(=O)NC1CCCCC1 (stereo unspecified) in this test
false

Outcome logged for `O=C(Nc1ccccc1)c1nnsc1S(=O)(=O)c1ccc(Cl)cc1` in this assay:
false

I would be grateful if you could indicate the recorded call for CCCCCCCCCCOC(=O)C[N+](C)(C)CC1CCCCC1O (stereo unspecified) .
false

---
Look up the recorded call for `CC(=O)/C(=N\Nc1ccc(Cl)cc1Cl)Sc1cccc2cccnc12` in this test.
true

Could you please tell me the result logged for `COc1cccc2sc(N(CCCN(C)C)C(=O)CCS(=O)(=O)c3ccccc3)nc12` in this assay?
true

Please share the test call associated with O=C(Nc1ccccc1Cl)/C(Cl)=C(\Cl)S(=O)c1ccccc1 (stereo unspecified) .
true
